biological target: Zap-70 (Homo sapiens); construct: Kinases are expressed as either kinase domains or full length constructs; made in house; assay: Kinase inhibition assay (33P transfer), Zap-70; type: biochemical; conditions: Table 3; read-out: Zap-1
Sequence (P43403 whole entry, species assumed, the tested form may be a part): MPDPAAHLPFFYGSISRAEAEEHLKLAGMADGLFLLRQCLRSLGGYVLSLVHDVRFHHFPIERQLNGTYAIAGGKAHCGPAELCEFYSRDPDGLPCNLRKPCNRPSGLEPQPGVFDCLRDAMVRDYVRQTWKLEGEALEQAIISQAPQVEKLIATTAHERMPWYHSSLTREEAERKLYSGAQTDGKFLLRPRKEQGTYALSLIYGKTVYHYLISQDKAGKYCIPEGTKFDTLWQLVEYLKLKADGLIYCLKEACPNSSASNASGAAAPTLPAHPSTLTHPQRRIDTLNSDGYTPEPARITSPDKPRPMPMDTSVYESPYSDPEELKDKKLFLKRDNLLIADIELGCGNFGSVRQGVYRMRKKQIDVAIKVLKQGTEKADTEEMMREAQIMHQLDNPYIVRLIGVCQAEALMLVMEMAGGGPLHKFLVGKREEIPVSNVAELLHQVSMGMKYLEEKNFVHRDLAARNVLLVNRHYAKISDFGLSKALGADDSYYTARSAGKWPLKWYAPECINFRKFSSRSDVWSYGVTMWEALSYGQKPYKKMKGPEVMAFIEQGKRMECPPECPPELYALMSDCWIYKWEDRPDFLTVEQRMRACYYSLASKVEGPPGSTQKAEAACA
reportedProperty: IC50

Value of measured IC50 for the entry COc1cccc(Nc2ncnc(Nc3cc(OC)c(OC)c(OC)c3)n2)c1 [Compound 87] : 9.13 to 11.7 µM

Consider COc1cc(Nc2ncnc(Nc3c(C)n(C)n(-c4ccccc4)c3=O)n2)cc(OC)c1OC [Compound 256] . Its measured IC50 is > 9.71 µM

IC50 recorded for this molecule, NC(=O)[C@H](CO)Nc1ncnc(-n2c(=O)[nH]c3ccccc32)n1 [Compound 450] , is > 14.3 µM

Summary for this molecule, COc1cc(Nc2ncnc(Nc3ccc(N(C)C)cc3)n2)cc(OC)c1OC [Compound 27] : IC50 is > 11.4 µM

molecule COc1cc(Nc2ncnc(-n3c(N)nc4ccccc43)n2)ccc1OCCn1ccnn1 [Compound 324] , IC50 observed: > 10.1 µM

The recorded IC50 for NC(=O)c1ccc(Nc2ncnc(-n3c(N)nc4ccccc43)n2)cc1 [Compound 396] is > 13 µM

Kindly note the recorded IC50 for COc1cc(Nc2ncnc(Nc3ccc(C)cc3)n2)cc(OC)c1OC [Compound 930] , which is > 12.2 µM

get_value(item= COc1cc(Nc2ncnc(-n3cccc3)n2)cc(OC)c1OC [Compound 182] , readout=IC50) returns > 13.7 µM

Value of measured IC50 for the entry COc1cc(Nc2ncnc(N3CCc4cc([N+](=O)[O-])ccc43)n2)cc(OC)c1OC [Compound 187] : > 10.6 µM

In plain terms, CC(=O)NS(=O)(=O)c1ccc(Nc2ncnc(-n3c(=O)[nH]c4ccccc43)n2)cc1 [Compound 452] has a documented IC50 of > 10.6 µM

// sample COc1ccc2c(c1)c(CCNC(C)=O)cn2-c1ncnc(Nc2cc(OC)c(OC)c(OC)c2)n1 [Compound 339] , its IC50 was > 9.14 µM

The reported value for COc1cc(Nc2ncnc(-n3cc(CCO)c4ccccc43)n2)cc(OC)c1OC [Compound 463] in terms of IC50 is > 10.7 µM

Sample COc1cc(Nc2ncnc(N3CCN(c4ccccn4)CC3)n2)cc(OC)c1OC [Compound 213] ; IC50 observed: > 10.6 µM

// sample COc1cc(Nc2ncnc(Nc3ccc(Cl)cc3F)n2)cc(OC)c1OC [Compound 306] , its IC50 was > 11.1 µM

---

target: Kdr (Homo sapiens, UniProt P35968); construct: Kinases are expressed as either kinase domains or full length constructs; made in house; assay: Kinase inhibition assay (33P transfer), Kdr; type: biochemical; conditions: Table 3; read-out: KDR-1
Sequence (P35968 20-1356, species assumed): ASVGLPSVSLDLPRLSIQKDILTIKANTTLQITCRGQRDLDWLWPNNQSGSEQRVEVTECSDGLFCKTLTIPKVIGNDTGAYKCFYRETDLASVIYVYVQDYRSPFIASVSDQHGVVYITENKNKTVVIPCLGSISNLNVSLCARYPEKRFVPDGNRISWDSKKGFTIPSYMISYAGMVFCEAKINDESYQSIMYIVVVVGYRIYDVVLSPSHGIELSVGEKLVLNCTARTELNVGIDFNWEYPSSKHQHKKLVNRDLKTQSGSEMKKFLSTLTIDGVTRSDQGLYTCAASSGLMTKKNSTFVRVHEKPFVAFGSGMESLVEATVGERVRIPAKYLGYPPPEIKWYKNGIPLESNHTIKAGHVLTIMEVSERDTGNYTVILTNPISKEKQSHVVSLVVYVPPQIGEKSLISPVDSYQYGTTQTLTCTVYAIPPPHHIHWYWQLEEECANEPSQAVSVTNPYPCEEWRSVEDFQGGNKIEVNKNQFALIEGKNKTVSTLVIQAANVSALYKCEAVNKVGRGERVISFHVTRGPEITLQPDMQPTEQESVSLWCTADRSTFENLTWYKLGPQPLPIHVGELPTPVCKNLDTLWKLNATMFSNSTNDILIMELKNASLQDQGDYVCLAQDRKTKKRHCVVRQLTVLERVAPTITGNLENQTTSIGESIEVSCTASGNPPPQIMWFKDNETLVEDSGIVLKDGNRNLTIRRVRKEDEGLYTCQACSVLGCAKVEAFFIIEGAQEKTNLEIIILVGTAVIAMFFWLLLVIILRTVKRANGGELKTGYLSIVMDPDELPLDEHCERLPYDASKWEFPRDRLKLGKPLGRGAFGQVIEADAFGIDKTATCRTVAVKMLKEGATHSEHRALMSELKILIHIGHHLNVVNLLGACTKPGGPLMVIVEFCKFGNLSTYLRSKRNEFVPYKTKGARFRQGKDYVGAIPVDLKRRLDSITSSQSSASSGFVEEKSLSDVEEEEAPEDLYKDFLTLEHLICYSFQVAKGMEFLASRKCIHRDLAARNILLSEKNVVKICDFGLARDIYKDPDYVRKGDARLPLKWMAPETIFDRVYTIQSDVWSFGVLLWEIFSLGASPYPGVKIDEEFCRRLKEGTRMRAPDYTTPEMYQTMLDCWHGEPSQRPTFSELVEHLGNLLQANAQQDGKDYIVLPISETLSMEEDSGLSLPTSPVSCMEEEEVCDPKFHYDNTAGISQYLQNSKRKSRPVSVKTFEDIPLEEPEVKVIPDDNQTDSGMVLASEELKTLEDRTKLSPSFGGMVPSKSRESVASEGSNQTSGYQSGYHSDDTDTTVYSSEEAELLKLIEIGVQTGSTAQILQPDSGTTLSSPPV
pIC50: −log10 of the molar value.
Give measured pIC50 for each item. Keep answers brief.

Reported pIC50 of Fc1ccc(Nc2ncnc(-n3cccc3)n2)cc1 : 4.75 to 4.86

// pIC50 lookup, compound = COc1cc(Nc2ncnc(-n3cc(CC(N)=O)c4ccccc43)n2)cc(OC)c1OC , result: > 6.04

Value of pIC50 reported for the compound COc1ccc(Nc2ncnc(Nc3ccccc3C)n2)cc1OC is 5.15 to 5.93

---

target: PDGFRB (Homo sapiens, UniProt P09619); construct: Kinases are expressed as either kinase domains or full length constructs; made in house; assay: Kinase inhibition assay (33P transfer), PDGFRB; assay type: biochemical; settings: read-out: PDGFRB-1
Sequence (P09619 33-1106, species assumed): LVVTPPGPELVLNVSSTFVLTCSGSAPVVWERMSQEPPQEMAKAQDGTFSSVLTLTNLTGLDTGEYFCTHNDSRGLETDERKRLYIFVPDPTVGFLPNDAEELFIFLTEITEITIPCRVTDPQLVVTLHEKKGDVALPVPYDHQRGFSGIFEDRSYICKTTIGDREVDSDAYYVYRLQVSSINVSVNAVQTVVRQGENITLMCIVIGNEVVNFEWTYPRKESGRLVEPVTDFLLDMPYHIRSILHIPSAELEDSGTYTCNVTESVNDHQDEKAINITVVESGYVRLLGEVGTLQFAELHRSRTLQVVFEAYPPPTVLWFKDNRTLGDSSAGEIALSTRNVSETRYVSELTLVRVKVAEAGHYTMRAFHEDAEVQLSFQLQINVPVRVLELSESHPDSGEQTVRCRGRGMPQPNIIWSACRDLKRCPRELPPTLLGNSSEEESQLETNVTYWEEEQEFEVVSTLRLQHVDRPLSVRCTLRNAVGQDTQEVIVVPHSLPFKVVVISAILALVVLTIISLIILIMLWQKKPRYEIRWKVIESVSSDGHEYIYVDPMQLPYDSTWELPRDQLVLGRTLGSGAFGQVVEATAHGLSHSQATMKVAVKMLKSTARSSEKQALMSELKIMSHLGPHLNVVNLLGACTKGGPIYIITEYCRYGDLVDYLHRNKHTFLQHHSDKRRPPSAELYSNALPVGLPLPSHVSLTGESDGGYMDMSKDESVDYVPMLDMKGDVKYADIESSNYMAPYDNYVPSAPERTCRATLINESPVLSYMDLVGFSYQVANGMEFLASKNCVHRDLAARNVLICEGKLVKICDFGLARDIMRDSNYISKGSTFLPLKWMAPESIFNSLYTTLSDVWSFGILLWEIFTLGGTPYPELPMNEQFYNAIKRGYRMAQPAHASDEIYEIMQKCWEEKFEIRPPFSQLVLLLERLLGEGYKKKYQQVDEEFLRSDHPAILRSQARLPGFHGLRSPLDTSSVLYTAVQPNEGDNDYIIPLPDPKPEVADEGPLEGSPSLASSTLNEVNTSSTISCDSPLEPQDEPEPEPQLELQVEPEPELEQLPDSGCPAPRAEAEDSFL
reportedProperty: IC50

Reported IC50 ( Cc1ccc(Cl)cc1Nc1ncnc(N2c3ccc(F)cc3CCC2C)n1 (centres unmarked) ) = 1.04 to 6.25 µM

Form field IC50, entry COc1ccc(Nc2ncnc(N(C)c3ccc(C)cc3)n2)cc1OC : 1.14 to 6.83 µM

Noted for c1coc(-c2cc(Nc3ncnc(Nc4ccc(-c5csnn5)cc4)n3)n[nH]2)c1 : its IC50 reads < 0.991 µM

# IC50 (compound: Brc1cccc(Nc2ncnc(Nc3cccc(Br)c3)n2)c1 ) is 8.31 to 10.7 µM

The recorded IC50 for entry COc1cc(Nc2ncnc(-n3c(NCc4ccc5c(c4)OCO5)nc4ccccc43)n2)cc(OC)c1OC equals 6.63 to 8.53 µM

Per the records, this compound ( COc1cc(Nc2ncnc(Nc3ccc(OCCO)cc3)n2)cc(OC)c1OC ) has IC50 equal to < 0.968 µM

// COC(=O)Cc1cccc(Nc2ncnc(Nc3cccc(Br)c3)n2)c1 : IC50 value = 8.45 to 10.9 µM

Documented IC50 of COc1ccc(CNc2ncnc(Nc3cc(-c4ccco4)[nH]n3)n2)cc1OC : 1.02 to 6.1 µM

Reported IC50 of COc1ccc(Nc2ncnc(NCc3ccc(C)c(Cl)c3)n2)cc1OC : > 11.7 µM

Kindly note the recorded IC50 for COc1ccc(Nc2ncnc(NCC(O)c3ccccc3)n2)cc1OC (centres unmarked) , which is 9.53 to 12.2 µM

In plain terms, COc1ccc(-c2cc(Nc3ncnc(Nc4ccc(CC(N)=O)cc4)n3)[nH]n2)cc1 has a documented IC50 of > 10.8 µM

Note to self: IC50 recorded for Cc1ccc2c(c1)CCCN2c1ncnc(Nc2cccc(Cl)c2C)n1 was > 12.3 µM

Recorded IC50 (compound CCOC(=O)c1cccc(Nc2ncnc(Nc3cc(-c4ccc(C(=O)OC)cc4)n[nH]3)n2)c1 ): 0.871 to 5.22 µM

// IC50 value for COc1ccc(Nc2ncnc(N(C)C3CCN(Cc4ccccc4)C3)n2)cc1OC (centres unmarked) : 0.951 to 5.71 µM

Kindly note the recorded IC50 for COC(=O)c1ccc(-c2cc(Nc3ncnc(NCc4ccccc4F)n3)[nH]n2)cc1 , which is 0.954 to 5.72 µM

Summary for this compound, COc1ccc([C@H](C)Nc2nc3ccccc3n2-c2ncnc(Nc3cc(OC)c(OC)c(OC)c3)n2)cc1 : IC50 is > 8.53 µM

Notebook: CN(c1cccc(Cl)c1)c1ncnc(Nc2ccc(Cl)c(Cl)c2)n1 , IC50 read as > 11.8 µM

What the record says about COc1cc(Nc2ncnc(Nc3cc(-c4ccco4)[nH]n3)n2)cc(C(F)(F)F)c1 : IC50 is 0.958 to 5.75 µM

Memo: COc1ccc(Nc2ncnc(N3CCCc4ccc(C)cc43)n2)cc1OC , reported IC50: 1.06 to 6.36 µM

compound COc1cc(Nc2ncnc(-c3cccnc3Nc3ccc4c(c3)CCC4)n2)cc(OC)c1OC , IC50 observed: > 9.56 µM

---

target: Lck (Homo sapiens); construct: Kinases are expressed as either kinase domains or full length constructs; made in house; assay: Kinase inhibition assay (33P transfer), Lck; type: biochemical; details: read-out: Lck-1
Sequence (P06239 whole entry, species assumed, the tested form may be a part): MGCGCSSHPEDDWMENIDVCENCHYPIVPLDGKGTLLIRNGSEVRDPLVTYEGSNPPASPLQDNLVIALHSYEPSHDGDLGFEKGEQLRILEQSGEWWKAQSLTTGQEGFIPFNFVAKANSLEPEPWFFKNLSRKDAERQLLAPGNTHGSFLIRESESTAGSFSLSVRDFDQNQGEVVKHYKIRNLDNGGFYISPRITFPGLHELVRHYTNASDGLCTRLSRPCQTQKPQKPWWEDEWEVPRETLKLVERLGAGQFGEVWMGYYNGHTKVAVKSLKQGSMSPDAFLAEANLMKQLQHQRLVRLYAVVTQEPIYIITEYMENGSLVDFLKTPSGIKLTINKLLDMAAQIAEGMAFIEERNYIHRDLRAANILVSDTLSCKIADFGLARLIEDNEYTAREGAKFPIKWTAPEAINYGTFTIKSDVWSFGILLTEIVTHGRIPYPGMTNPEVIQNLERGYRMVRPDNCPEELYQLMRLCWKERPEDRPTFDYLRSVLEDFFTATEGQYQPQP
So I've got a bunch of molecules here, and I need their IC50 values.

Value of measured IC50 for the entry COc1cc(Nc2ncnc(Nc3cccc(C(F)(F)F)c3)n2)cc(OC)c1OC : 0.949 to 5.7 µM

Entry COc1ccc(-c2ncnc(Nc3cc(OC)c(OC)c(OC)c3)n2)cc1OC , IC50 reported as 1 to 6.02 µM

Recorded result, CN(c1cccc(Cl)c1)c1ncnc(Nc2ccncc2)n1 , IC50: 1.28 to 7.67 µM

Entry CN(c1cccc(Cl)c1)c1ncnc(Nc2ccc(Cl)c(Cl)c2)n1 , IC50 reported as > 11.8 µM

For COc1cc(Nc2ncnc(-n3c(NCc4ccccn4)nc4ccccc43)n2)cc(OC)c1OCCN1CCOCC1 the molecule record lists IC50 as 0.685 to 4.11 µM

# IC50 (molecule: CCN(CC)CCOc1ccc(Nc2ncnc(Nc3cc(OC)c(OC)c(OC)c3)n2)cc1OC ) is 0.802 to 4.81 µM

molecule COc1ccc(Nc2nc3ccccc3n2-c2ncnc(Nc3cc(OC)c(OC)c(OC)c3)n2)c(C)c1 , IC50 observed: 4.67 to 6.82 µM

response.value for c1ccc(Cn2ncc3cc(Nc4ncnc(NCC5CCCCC5)n4)ccc32)cc1 (field: IC50) = > 10.9 µM

Entry O=c1[nH]c2ccccc2n1-c1ncnc(Nc2ccccc2)n1 ; IC50 = > 14.8 µM

Kindly note the recorded IC50 for COc1ccc(Nc2ncnc(NCCCN3CCCCC3C)n2)cc1OC (centres unmarked) , which is > 11.6 µM

// IC50 lookup, molecule = COc1cccc(Nc2ncnc(-n3c(N)nc4ccccc43)n2)c1 , result: 1.2 to 7.2 µM

Looking up CN(C)CCNc1ncnc(Nc2ccc3c(cnn3Cc3ccccc3)c2)n1 , I found its IC50 recorded as > 11.6 µM

// IC50 lookup, molecule = COc1cc(Nc2ncnc(-c3cccnc3N)n2)cc(OC)c1OC , result: 1.13 to 6.77 µM

Quick note, IC50 for COc1cc(Nc2ncnc(-n3c(NCc4ccccc4F)nc4ccccc43)n2)cc(OC)c1OC landed at 0.798 to 4.79 µM

Value of measured IC50 for the entry COc1cc(Nc2ncnc(-n3c(NCc4ccc(OC(F)(F)F)cc4)nc4ccccc43)n2)cc(OC)c1OC : > 7.93 µM

Summary for this molecule, COc1cc(Nc2ncnc(Nc3ccc(Cl)c4ccccc34)n2)cc(OC)c1OC : IC50 is 0.913 to 5.48 µM

For reference, reported IC50 for O=c1[nH]c2ccccc2n1-c1ncnc(Nc2cc(Cl)cc(Cl)c2)n1 stands at 9.38 to 12.1 µM

// sample COc1cc(Nc2ncnc(-c3cccnc3Cl)n2)cc(OC)c1OCCN1CCOCC1 , its IC50 was 0.846 to 5.07 µM

Field IC50 (entry CCN(c1ccccc1)c1ncnc(Nc2cc(OC)c(OC)c(OC)c2)n1 ) reads 1.05 to 6.29 µM

Entry under test: COc1cc(Nc2ncnc(Nc3n[nH]c(Nc4ccc(Cl)cc4)n3)n2)cc(OC)c1OC . Its IC50 was 0.851 to 5.11 µM
